biological target: RUNX1 (UniProt Q01196); experiment: RUNX1 binding intensity (PBM fluorescence) in presence of ETS1, normalised to RUNX1-only experiment (arbitrary fluorescence units); higher = stronger binding; settings: RUNX1 concentration 2 nM; ETS1 concentration 25 nM
Sequence (Q01196 whole entry): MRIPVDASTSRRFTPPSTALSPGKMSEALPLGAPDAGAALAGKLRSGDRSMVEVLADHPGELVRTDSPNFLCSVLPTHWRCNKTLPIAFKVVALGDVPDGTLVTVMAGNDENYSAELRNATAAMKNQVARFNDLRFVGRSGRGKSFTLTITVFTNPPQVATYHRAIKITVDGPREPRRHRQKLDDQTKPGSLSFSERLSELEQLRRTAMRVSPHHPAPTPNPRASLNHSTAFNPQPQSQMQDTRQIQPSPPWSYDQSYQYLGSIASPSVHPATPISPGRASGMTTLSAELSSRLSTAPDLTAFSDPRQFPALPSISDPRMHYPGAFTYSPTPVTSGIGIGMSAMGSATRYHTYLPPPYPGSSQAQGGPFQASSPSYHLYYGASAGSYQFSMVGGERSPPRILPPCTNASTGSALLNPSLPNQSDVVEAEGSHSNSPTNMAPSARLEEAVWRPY
Documented RUNX1 binding intensity across a set of sequences
ENDPOINT_NAME: RUNX1 binding intensity

RESIDUES	VAL
CATCCAGGACGGAAACAGCATCCCCACCGCGGGAGC	1080
AGGCGCCGGAAAAACTACATCTCCCACAATCCTCGG	913
ACCAGCCCAGGAAGCATCTGCGGTTCAAGTGGCCAC	1750
AGTGGAGTAGGAACCGGAAAACCACAATAAGTCCCA	3630
GCGCCCCGCTTCCGGGGCCGCCCTAAACCGCGGCCG	3790
ATGGAAAGGAAGTCGGTGGGAAACCGCCTCAGCGGT	1200

---

molecular target: RUNX1 (UniProt Q01196); assay: RUNX1 binding intensity (PBM fluorescence) in presence of ETS1, normalised to RUNX1-only experiment (arbitrary fluorescence units); higher = stronger binding; details: RUNX1 concentration 2 nM; ETS1 concentration 25 nM
Reported RUNX1 binding intensity values follow for various sequences

RESIDUES	TESTED_ON	RUNX1 binding intensity
GGGTGCAGACGGGAAGTTGCGGCTGCCAGCGAAGCT	RUNX1 (UniProt Q01196)	1270
TGTGTAAGAGGAAACACCAAAACCACAAATATGAAA	RUNX1 (UniProt Q01196)	3530
AACCCCAAAACGGAAACACCGGAGCCACAAGCTGAG	RUNX1 (UniProt Q01196)	1300
GAGACAGGAAATGTAGACTTGAGTCCTGTGGTAAAC	RUNX1 (UniProt Q01196)	1260
GGGGCCTCTGCTACTTCCTAGACCGCAAAATGGAGA	RUNX1 (UniProt Q01196)	6150
GCCAACAGGAAGCTGGAAGCCAACCGCACTGTGTGC	RUNX1 (UniProt Q01196)	1670
TGCTTCTGAGGAAGTGATCTGTGGTCAAAGAAAGAA	RUNX1 (UniProt Q01196)	1180
GTGCCTCACCGCTTCCGGCGCTGCGGGATGACGTCA	RUNX1 (UniProt Q01196)	7320
ACCCGGATGTCGTTGGGCAGGAACTGCGGTGAGGGC	RUNX1 (UniProt Q01196)	1490
GTGGCGAAAGTGCGGATGCGAAACCGCTGGCTCGGC	RUNX1 (UniProt Q01196)	881
ATAGTCTCTTCCTGTGTTGCAAACCACAGGTCCACC	RUNX1 (UniProt Q01196)	2300
CCCTTCCTGTGAGGGAGGTTCCAGTTCCCACAGCGG	RUNX1 (UniProt Q01196)	1670
CAGGTTGTTGAGGATGTGGAGAAACCGCAACCTCGT	RUNX1 (UniProt Q01196)	6690
ATGGTCCAGGAAGATAAGGGCTGAAAACCACCCACT	RUNX1 (UniProt Q01196)	824
GCGAAAGGAACTTCCTTTGCATGCGGTCAGAGTGCT	RUNX1 (UniProt Q01196)	2490
CACCTCAGCTTCCTGTGTAGCTGGGACCACAGGCAT	RUNX1 (UniProt Q01196)	1560
GTGAGCCTGTAAAGGAAATTGAGGTTATGTGGCTCA	RUNX1 (UniProt Q01196)	864
CTTTGCTGCAGGATGTTCTAACCACAAGCCCAGGAG	RUNX1 (UniProt Q01196)	7310
CGAACTCCCGTCCGGCCGCGCCCGCAGCCCGCCGCC	RUNX1 (UniProt Q01196)	1130
TGTCGTACATTTCCGCCTTGTGGGCACAATCTGATT	RUNX1 (UniProt Q01196)	1950
CCCTACTCAGGAGGATGTGGTTGGAGAACCCGCTGA	RUNX1 (UniProt Q01196)	1300
ACATTTCCTTTTGGTATTTAAAGTAACCACACAGAA	RUNX1 (UniProt Q01196)	2120
TTCAATCACAGGAAACAGACGTCACCCACAGACCTA	RUNX1 (UniProt Q01196)	983
CCCATCCATCCGCCTCCAAAGTAACCTCAAGAATTT	RUNX1 (UniProt Q01196)	2490
TGGCTTATCCTAACAGGAAGTGGTTTATCTGATCCT	RUNX1 (UniProt Q01196)	2390
AGCTCTGCCAGGAAGTGAGAACCACAGGCCTCCCCT	RUNX1 (UniProt Q01196)	1350
GGCTCGGCAAACATCCGGCTCCGCGGTGGAACGGGA	RUNX1 (UniProt Q01196)	1580
TGGCTGTGAGCTGCAGGATGTGGTCAGGAGAGGAAG	RUNX1 (UniProt Q01196)	2310
AGATCAACTTCCACATCCGGTGGTAACAGGGCCCTA	RUNX1 (UniProt Q01196)	2970
CACCTCCTCTCCGGATGCGGTTTGTTCTGCTTGTAG	RUNX1 (UniProt Q01196)	6810
CTTTCGGGGGCGGAAGTTGCGGTGCATTGTAGGTTC	RUNX1 (UniProt Q01196)	2800
CAGCCGACTTCCGGGGTGGGGCTTGCTGCCGCAGAG	RUNX1 (UniProt Q01196)	1730
TTGAGGGGAAGGGGAGGAAGTGGTCATTGGAACTTG	RUNX1 (UniProt Q01196)	990
GGGCGGGTGAGACCAGGATGTGGGTTCCCCCACCTT	RUNX1 (UniProt Q01196)	1120
TCCTTAATGGTTCCGGCGGCAGGGACCGCAGCGACG	RUNX1 (UniProt Q01196)	914
TGGTTAGGGAGAGGGGGATGTGGTTAGGGTGAGGGA	RUNX1 (UniProt Q01196)	1140
CTCACTCATCTGACTTCCTGCGGTTTACGACAACAG	RUNX1 (UniProt Q01196)	17400
TGACGGCAGGCAGGATGTGGTGAGACAAATCCACTC	RUNX1 (UniProt Q01196)	2660
GGAGCGCGCCGGAAACGCGCGGCTGCGGCCCGGGAG	RUNX1 (UniProt Q01196)	1320
CTCATTGACAGGAAGTCTAACCACAGGCTTAGGCCC	RUNX1 (UniProt Q01196)	6750
ACCATAAGGACCGGAAGCAGAGACCACACTGGTGCT	RUNX1 (UniProt Q01196)	1440
AGTGCAGAGTGGACAGGATGTGGTGGAGGTGAGAGA	RUNX1 (UniProt Q01196)	1500
GAAGAGGGTGGAGAAGGAAGTGGTCACACCACTTGC	RUNX1 (UniProt Q01196)	929
CGCCGGCTCCCGGATGTTGTGGGGATCAGCGCCCGC	RUNX1 (UniProt Q01196)	1260
CTGAAAAACCGGAAGTGGGTGGTTTGAAACGTAAAT	RUNX1 (UniProt Q01196)	4130
CCGATTTCCCCGGACGTGGTGAGACCGCGCTTCGTC	RUNX1 (UniProt Q01196)	1280
GAGCGCAGGACGGAAGCTCGGTGCGGGTGCGGCCTC	RUNX1 (UniProt Q01196)	917
GCCATCCAGGAAGTACAGACTCCCTGACCGCACTGA	RUNX1 (UniProt Q01196)	2110
TGTCAGCTGCGTTTCCGCGGTCGCGGGTGAGTGTGC	RUNX1 (UniProt Q01196)	1360
CTTAGCGGAAGAGGCGTGACCCAGGCGTACCGCAGG	RUNX1 (UniProt Q01196)	870

---

Molecular target: ETS1 (UniProt P14921)
Sequence: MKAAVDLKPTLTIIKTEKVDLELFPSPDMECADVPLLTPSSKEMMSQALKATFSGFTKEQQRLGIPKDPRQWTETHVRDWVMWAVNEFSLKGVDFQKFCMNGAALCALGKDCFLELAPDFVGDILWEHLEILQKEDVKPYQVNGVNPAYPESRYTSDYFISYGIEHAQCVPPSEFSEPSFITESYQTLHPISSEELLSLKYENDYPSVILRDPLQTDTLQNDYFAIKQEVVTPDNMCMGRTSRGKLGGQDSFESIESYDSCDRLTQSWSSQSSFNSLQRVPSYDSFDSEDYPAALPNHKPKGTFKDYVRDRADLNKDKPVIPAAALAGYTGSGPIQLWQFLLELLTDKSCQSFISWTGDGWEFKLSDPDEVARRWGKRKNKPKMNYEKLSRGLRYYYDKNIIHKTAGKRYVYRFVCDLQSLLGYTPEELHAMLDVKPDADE
Test: TF binding intensity (PBM fluorescence), negative control probe (arbitrary fluorescence units); higher = stronger binding
Here, each record is paired with measured TF binding intensity data.
ENDPOINT_NAME: TF binding intensity

RESIDUES	VAL
TTATAGGTGAGAGCTACCATGCCTGGTCCTATTTAA (protein concentration 10 nM)	97.6
TAATCCCAGCACTTTGGGAATCCAAGGCAGTCAAAT (protein concentration 10 nM)	94.8
TTTTTAAATTCGGTTTTGTGTTTTATCTTCAATTTC (protein concentration 10 nM)	105
